Molecular target: T1, Ebola virus GP, Cote d'Ivoire strain, on VLPs (Ebola virus, Cote d'Ivoire strain, UniProt Q66810 33-676)
T1 construct: also called Cote d'Ivoire FJ217162; Ivory Coast
T1 sequence: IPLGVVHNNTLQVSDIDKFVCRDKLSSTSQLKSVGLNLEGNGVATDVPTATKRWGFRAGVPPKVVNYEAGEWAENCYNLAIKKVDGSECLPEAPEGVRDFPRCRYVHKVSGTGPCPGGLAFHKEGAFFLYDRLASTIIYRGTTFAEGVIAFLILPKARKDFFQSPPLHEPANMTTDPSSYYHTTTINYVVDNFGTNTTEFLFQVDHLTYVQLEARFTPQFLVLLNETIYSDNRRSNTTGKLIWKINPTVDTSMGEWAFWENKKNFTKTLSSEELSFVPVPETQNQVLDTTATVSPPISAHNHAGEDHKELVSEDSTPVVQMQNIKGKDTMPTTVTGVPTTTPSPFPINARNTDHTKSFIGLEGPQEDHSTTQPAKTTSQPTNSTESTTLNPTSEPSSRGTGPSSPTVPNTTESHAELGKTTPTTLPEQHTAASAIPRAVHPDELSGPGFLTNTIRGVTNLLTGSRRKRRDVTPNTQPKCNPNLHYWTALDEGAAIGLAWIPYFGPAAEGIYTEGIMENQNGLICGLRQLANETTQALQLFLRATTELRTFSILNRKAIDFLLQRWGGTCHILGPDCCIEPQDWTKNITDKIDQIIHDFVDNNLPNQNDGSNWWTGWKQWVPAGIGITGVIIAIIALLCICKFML
Assay: MSD, VLPs coated
recorded.endpoint: binding result

Some solved entries appear below for comparison.
• H1M17357N (antibody, V domains shown, also called HCAF09D11-13) VH: QVQLVQSGAEVKKPGASVKVSCKASGYTFTSYYMHWVRQAPGQGLEWMGIINPSGGSTSYAQKFQGRVTMTRDTSTSTVYMELSSLRSEDTAVYYCAREIGEAGEVFNYWGQGTLVTVSS VL: DIQMTQSPSSLSASVGDRVTITCRASQSISRYLNWYQHKPGKAPKVLIYAASILQSGVPSRFSGSGSGTDFTLTISSLQPEDFATYYCQQSYSTPPITFGQGTRLEIK = no binding
• H1H17203P (antibody, V domains shown) VH: QVQLVESGGGVVQPGRSLRLSCAASGFTFNNYGMHWVRQAPGMGLEWVAVIWHDGSDKYYADSVKGRFTISRDNSKNTLYLQMNSLRAEDTAVYYCARNWNLFDYWGQGTLVTVSS VL: DIQMTQSPSSLSASVGDRITITCRASQSISTYLHWYQQKPGKAPKLLIYAASTLQSGVPSRFSGSGSGTDFTLTISSLQPEDFATYYCQQSFSTPPINFGQGTKLEIK = no binding
• H1H17214P (antibody, V domains shown) VH: EVQLVESGGGLVQPGGSLRLSCAASKFTFDTFAMSWVRQAPGKGLEWVSFISSSGGRTDYVDSVKGRFTISRDNSKNTLYLQMNSLRAEDTAVYYCAKERTIFGVLILGPDNYGMDVWGQGTTVTVSS VL: DIQMTQSPSSLSAFVGDRVTITCRASQSISTYLNWYQQKPGKAPKLLIYAASSLQSGVSSRFSGSGSGTDFTLTISSLQPEDFATYYCQQSYSAPPITFGQGTRLEIK = no binding
• H1H17223P (antibody, V domains shown) VH: EVQLVESGGGLVQPGGSLRLSCAASGFTFRTYDMHWVRQATGKGLEWVSAIGTAGDTYYPGSVKGRFTISRENAKNSLYLQMNSLRAGDTAVYYCARTIFGVVLTFDYWGQGTLVTVSS VL: DIQMTQSPSSLSASVGDRVTITCRASQSISSSLNWYQQKPGKAPKLLIYAASSLHSGVPSRFSGSGSGTDFTLTISSLQPEDFATYYCQQTYSIPPTTFGQGTKVEIK = no binding

Query: Form field: reported binding result of H1H17196P (antibody, V domains shown) VH: EVQLVESGGGLVQPGGSLRLSCAASGFTFRSYDMHWVRQGSGKGLEWVSAIGTAGDTYYLGSVKGRFTISRENAKNSLYLQMNSLRAGDTAVYYCARAWFGDVFLDYWGQGTLVTVSS VL: EIVMTQSPATLSVSPGERATLSCRASQSVSSNLAWYQQKPGQAPRLLIYGASTRATGIPARFSGSGSGTEFTLTISSLQSEDFAGYYCQQYNNRLTFGGGTKVEIK
Result: no binding
